What max response was measured for each of the following?
# Protocol Summary: qHTS Assay for Lipid Storage Modulators (AID 1519)
# Measurement Conditions: Drosophila S3 cells, BODIPY lipid droplet/cell ratio, laser cytometry; measured here: cell count channel max response; cells loaded with oleic acid
# Description: NIH Molecular Libraries Probe Production Centers Network [MLPCN] NIH Chemical Genomics Center [NCGC] Assay Submitter (PI): Beller, Mathias; Max-Planck-Institut fur Biophysikalische Chemie […] We dispensed 4 uL of cells at 1.25 x 10^6 cells/mL into LoBase Aurora COC 1,536-well plates (black walled, clear bottom) with a bottle-valve solenoid-based dispenser (Aurora) to obtain 5,000 cells/well. […] The ratio of the total intensity in PMT channel 1 over total intensity of channel 3 was also calculated. […]
Records with an inconclusive call do not appear. Starred links: 1 amine or outer side, 2 acyl side, 3 side chain; linkers in the order of their positions; H or OH if unused. Positions of bridges follow the written chain, without caps; N, C: chain ends. Non-standard residues stand in square brackets, D forms with d. Residues, ends and D or L forms follow the SMILES beside them. Peptide text beside a SMILES is read from it. *: point of attachment. X1 = NC1=N[C@@H](O)C[C@@H]([C@@H](N[*:1])C(=O)[*:2])N1; ΔAla(Z-3-ureido) = NC(=O)N/C=C(\N)C(=O)O; β3hOrn = NCCC[C@H](N)CC(=O)*; Dap = NC[C@H](N)C(=O)O
Numbers only, in %.

# annotated cases, reported max response shown
O=C(/C=C/c1ccccc1)c1ccc(O)cc1O    1.3
CN1CC(=O)N=C1N    5.89
CN1CCC[C@@H](CC2c3ccccc3Sc3ccccc32)C1    -0.662
N=c1ccn2c(n1)O[C@@H]1[C@H](O)[C@H](CO)O[C@@H]12    4.02
Cc1ncc([N+](=O)[O-])n1C[C@H](O)CCl    8.08
CCOc1ccc(C(=O)c2ccc(O)c(O)c2O)cc1    -5.66
O=c1c(O)c(-c2ccccc2)oc2cc(O)ccc12    -1.89
Oc1ccc2c(c1)OC(c1ccc(O)c(O)c1)C(O)C2 (stereo not given)    -5.73
CC(=O)OC1CC(OC(C)=O)[C@]2(C)C(CC(=O)[C@]3(C)C2CC[C@@]2(C)C(C(=O)O)OC(=O)C4OC423)C1(C)C (stereo not given in full)    10.8
NCCC[C@H](N)CC(=O)N[C@H]1CNC(=O)[C@@H]([C@@H]2C[C@H](O)N=C(N)N2)NC(=O)/C(=C/NC(N)=O)NC(=O)[C@@H](CO)NC(=O)[C@@H](CO)NC1=O (β3hOrn-[Dap][dS][dS][ΔAla(Z-3-ureido)][X1]; lactam 1-C)    -7.09

Each compound below has a reported value. Please supply its max response.
1. NCCCCC(N)C(=O)NC(Cc1ccc(O)cc1)C(=O)NC(CCCCN)C(=O)O (stereo not drawn) (H-Lys-Tyr-Lys-OH; configuration not given here)
2. NC(CCC(=O)NC(CCSC(CC(=O)O)C(=O)O)C(=O)NCC(=O)O)C(=O)O (stereo not given)
3. CC(C)=CC1C(C(=O)O)C1(C)C (stereo not given)
4. CC(=O)OC1CCC2C3CCc4cc(O)ccc4C3CCC12C (stereo not given)

Reply |
[3.42, 13.3, 18, 7.54]

Batch: max response for all items listed.
1. COC1C=CO[C@@]2(C)Oc3c(C)c(O)c4c(O)c(c5c(nc6cc(C)ccn65)c4c3C2=O)NC(=O)/C(C)=C\C=CC(C)C(O)[C@@H](C)C(O)C(C)[C@@H](OC(C)=O)C1C (stereo not given in full)
2. CC1CCC(C(C)C)C(=O)C1 (stereo not given)
3. CC1(C)CC[C@]2(C(=O)O)CC[C@@]3(C)C(=CCC4[C@@]5(C)CCC(O)[C@@](C)(CO)C5CC[C@@]43C)C2C1 (stereo not given in full)
4. NCCC(=O)N[C@@H](Cc1cnc[nH]1)C(=O)O
5. CCOC(=O)CCCCCCCCCCCCC1C=CCC1 (stereo not given)
6. CCCC[C@H](CC)CN1CN(C[C@@H](CC)CCCC)CC(C)(N)C1

Reply |
-0.865
11.5
5.6
-6.32
9.42
0.881
